Value source: patent US20160108110A1

Reported pKd is given for each of the following binders.
Biological target: T1, Human ANGPTL4(26-406)-FLAG-His6-Avi (human, UniProt Q9BY76 24-406, biotin on the C-terminal Avi tag in the biotinylated preparations (immobilised form in SET, ELISA and Octet))
T1 construct: also called full-length human ANGPTL4; hANGPTL4
T1 sequence: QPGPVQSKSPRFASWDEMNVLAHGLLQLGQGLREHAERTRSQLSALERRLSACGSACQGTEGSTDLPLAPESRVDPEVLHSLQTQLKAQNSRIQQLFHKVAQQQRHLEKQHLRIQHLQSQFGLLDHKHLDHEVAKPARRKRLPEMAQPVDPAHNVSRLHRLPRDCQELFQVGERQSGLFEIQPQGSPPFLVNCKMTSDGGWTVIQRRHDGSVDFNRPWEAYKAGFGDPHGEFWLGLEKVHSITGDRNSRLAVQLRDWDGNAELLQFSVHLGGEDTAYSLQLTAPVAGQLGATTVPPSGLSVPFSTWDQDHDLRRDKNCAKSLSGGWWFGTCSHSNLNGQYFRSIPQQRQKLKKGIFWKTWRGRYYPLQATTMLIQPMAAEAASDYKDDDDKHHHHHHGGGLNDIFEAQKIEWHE
Test: SET assay
# pKd is unitless: minus log10 of the molar concentration; print number only

binder | pKd
MOR023402 (antibody, human IgG1, kappa, V domains shown, as MOR023400: built on MOR022771, limits derived) VH: EVQLLESGGGLVQPGGSLRLSCAASGFTFSSYWMHWVRQAPGKGLEWVSVIGYSGTHTNYADSVKGRFTISRDNSKNTLYLQMNSLRAEDTAVYYCARDSYIYDLHWGFDNWGQGTLVTVSS VL: DIQMTQSPSSLSASVGDRVTITCRASQDISSYLNWYQQKPGKAPKLLIYAASRLQSGVPSRFSGSGSGTDFTLTISSLQPEDFATYYCQQSYTHPYTFGQGTKVEIKR | 12.00

// field: pKd; key: MOR023404 (antibody, human IgG1, kappa, V domains shown, as MOR023400: built on MOR022771, limits derived; the printed CDR is one residue shorter than the parent stretch) VH: EVQLLESGGGLVQPGGSLRLSCAASGFTFSSYWMHWVRQAPGKGLEWVSVIPYMGTAKYADSVKGRFTISRDNSKNTLYLQMNSLRAEDTAVYYCARDSYIYDLHWGFDNWGQGTLVTVSS VL: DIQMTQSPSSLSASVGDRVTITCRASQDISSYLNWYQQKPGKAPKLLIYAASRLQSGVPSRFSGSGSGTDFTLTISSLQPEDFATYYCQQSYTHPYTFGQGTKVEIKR ; value = 11.10
